FYI, the data here is from PubChem BioAssay.

# System: Hepatitis C virus NS3 helicase
# protocolSummary: HCV NS3 helicase inhibitors, primary screen, biochemical, fluorescence polarization, LOPAC1280 library (AID 687035)
# assayConditions: Purified HCV NS3 helicase, Cy5-dT15 ssDNA binding fluorescence polarization; active compounds read high; concentration not given here
Examples of molecules with documented inhibition follow.
Only the number, expressed in %, is required.

These recorded examples may help you get a feel for the data.
molecule	unitAbbrev	inhibition
COc1ccccc1N1CCN(CCN2C(=O)CC3(CCCC3)CC2=O)CC1	%	-5
O=C(O)c1cc(=O)c2c(Cl)cc(Cl)cc2[nH]1	%	-1
CCCCCCCCCCC(C)(C)C(=O)Nc1c(OC)cc(OC)cc1OC	%	-1
O=c1onc2cnc3ccccc3n12	%	0
O=C(O)C1CCCN(CCC=C(c2ccccc2)c2ccccc2)C1 (configuration not stated)	%	-1

Which value of inhibition has been reported for `Nc1ncnc2n[nH]c(Nc3ccc(F)cc3)c12` in the records?
-5

Name the reported inhibition value associated with the molecule `NC(=O)CNCCC(c1ccccc1)c1ccccc1`
0
